Each recorded value in this set is attributed to the supplement of paper PMC9112550.

The entries below are paired with their reported shrunken log2 fold change.
Tested on: Escherichia coli TOP10
Experiment: shrunken log2 fold change of peptide-encoding DNA abundance (4.5 h post-induction vs induction); higher = less antimicrobial activity (less host growth inhibition)
Details: time post-induction: 4.5 h; library: site-saturation at positions 5, 18, 19, 20
A bare number is all that is needed in reply.

# count of solved cases: 5
1. RRIRRRPPRLPRPRPRPHTCPRP ... 0.0847
2. RRIRSRPPRLPRPRPRPMSKPRP ... -0.032
3. RRIRVRPPRLPRPRPRPDTCPRP ... -0.135
4. RRIRTRPPRLPRPRPRPAVGPRP ... 0.532
5. RRIRWRPPRLPRPRPRPHNDPRP ... -0.324

API: value(readout=shrunken log2 fold change, system=Escherichia coli TOP10) for record `RRIRTRPPRLPRPRPRPTVYPRP`
-0.0364

API: value(readout=shrunken log2 fold change, system=Escherichia coli TOP10) for record `RRIRTRPPRLPRPRPRPHIPPRP`;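 note: peptides expressed intracellularly from a pBAD plasmid library in pooled LB shake-flask culture, induced with 0.3% L-arabinose, DNA abundance read by NGS, three biological replicates, DESeq2 with apeglm shrinkage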
-0.769
